Cited source for all entries: patent EP4775582A1

The following compounds are shown together with reported solubility at 24 h values.
Test: Solubility experiment (HPLC, external standard)
Format: physicochemical
Details: pH 7.4 medium, pH 7.4, pH 7.4 medium, 37 °C, 24 h
Description: This experiment was intended to determine the solubility of the compounds in media at different pH values. The materials used in the experiment included: a pH 1.2 medium, a pH 4.5 medium, a pH 7.4 medium, and a diluent (acetonitrile/water = 50/50). 1. The preparation methods for media are as follows: […] The solubility samples described above and the control solution were sequentially analyzed by high performance liquid chromatography. […]
Observable: solubility at 24 h

Compound	Observable	Recorded result
COCCn1c(-c2cc(C#CCN3CCN(C(=O)CO)CC3)c[n+]([O-])c2C(C)OC)c2c3cc(ccc31)-c1csc(n1)CC(NC(=O)C1C3COCC31)C(=O)N1CCCC(N1)C(=O)OCC(C)(C)C2 (atropisomer, axis not shown; (Ra))	solubility at 24 h	97 µg/mL
CCn1c(-c2cc(C#CCN3CCS(=O)(=O)CC3)cnc2C(C)OC)c2c3cc(ccc31)-c1csc(n1)CC(NC(=O)C1C3CNCC31)C(=O)N1CCCC(N1)C(=O)OCC(C)(C)C2 (atropisomer, axis not shown; (Ra))	solubility at 24 h	22.4 µg/mL
CCn1c(-c2cc(C#CCN3CCN(C(=O)CO)CC3)cnc2C(C)OC)c2c3cc(ccc31)-c1coc(n1)CC(NC(=O)C1C3COCC31)C(=O)N1CCCC(N1)C(=O)OCC(C)(C)C2 (atropisomer, axis not shown; (Ra))	solubility at 24 h	55.8 µg/mL
CCn1c(-c2cc(C#CC(CO)N3CCS(=O)(=O)CC3)cnc2C(C)OC)c2c3cc(ccc31)-c1csc(n1)CC(NC(=O)C1C3COCC31)C(=O)N1CCCC(N1)C(=O)OCC(C)(C)C2 (atropisomer, axis not shown; (Ra))	solubility at 24 h	5.1 µg/mL
CCn1c(-c2cc(C#CCN3CCN(C(=O)CO)CC3)cnc2C(C)OC)c2c3cc(ccc31)-c1csc(n1)CC(NC(=O)C1C(C)C1C)C(=O)N1CCCC(N1)C(=O)OCC(C)(C)C2 (atropisomer, axis not shown; (Ra))	solubility at 24 h	7.8 µg/mL
COCCn1c(-c2cc(C#CCN3CCC(C#N)(CO)CC3)c[n+]([O-])c2C(C)OC)c2c3cc(ccc31)-c1csc(n1)CC(NC(=O)C1C(C)C1C)C(=O)N1CCCC(N1)C(=O)OCC(C)(C)C2 (atropisomer, axis not shown; (Ra))	solubility at 24 h	15.6 µg/mL
CCn1c(-c2cc(C#CCN3CCS(=O)(=O)CC3)cnc2C(C)NC)c2c3cc(ccc31)-c1csc(n1)CC(NC(=O)C1C(C)C1C)C(=O)N1CCCC(N1)C(=O)OCC(C)(C)C2 (atropisomer, axis not shown; (Ra))	solubility at 24 h	101 µg/mL
CCn1c(-c2cc(C#CCN3CCN(C(=O)CO)CC3)c[n+]([O-])c2C(C)OC)c2c3cc(ccc31)-c1csc(n1)CC(NC(=O)C1C(C)C1C)C(=O)N1CCCC(N1)C(=O)OCC(C)(C)C2 (atropisomer, axis not shown; (Ra))	solubility at 24 h	71.2 µg/mL
CCn1c(-c2cc(C#CCN3CCN(C(=O)CN)CC3)cnc2C(C)OC)c2c3cc(ccc31)-c1csc(n1)CC(NC(=O)C1C3COCC31)C(=O)N1CCCC(N1)C(=O)OCC(C)(C)C2 (atropisomer, axis not shown; (Ra))	solubility at 24 h	109 µg/mL
